- Target or system: Pin1 (Homo sapiens, UniProt Q13526)
- Sequence (Q13526 whole entry): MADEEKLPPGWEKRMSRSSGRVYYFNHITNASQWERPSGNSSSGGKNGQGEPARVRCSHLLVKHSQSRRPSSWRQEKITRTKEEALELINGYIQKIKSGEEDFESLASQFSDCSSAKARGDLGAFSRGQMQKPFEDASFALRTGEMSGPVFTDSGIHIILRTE
- Measurement notes: Denaturation thermal shift assay (SYPRO Orange)
- Type: binding
- Set-up: human Pin1 (residues 1-163); made in house; host or cells: E. coli BL21 (DE3) gold pLysS
- Condition description: Table 4; single transition; ± SE of four replicates
Where a SMILES comes first, the peptide text is derived from it. [ ]: non-standard residue; d: D form. The star is where a group is joined. Trp(5-OH) = N[C@@H](Cc1c[nH]c2ccc(O)cc12)C(=O)O; Trp(5-F) = N[C@@H](Cc1c[nH]c2ccc(F)cc12)C(=O)O; Trp(7-Me) = Cc1cccc2c(C[C@H](N)C(=O)O)c[nH]c12; Pip = O=C(O)[C@@H]1CCCCN1; ClAc = O=C(CCl)*
// NB: equality with -9 °C counts as Criterion not met; only ΔTm (° C.) strictly below is Criterion met

Compound	Answer label
NC(=O)[C@H](Cc1c[nH]c2ccccc12)NC(=O)[C@@H]1CCCCN1C(=O)[C@H](Cc1c[nH]c2ccc(F)cc12)NC(=O)CCl [158H8] (ClAc-[Trp(5-F)]-[Pip]-Trp-NH2)	Criterion met
NC(=O)[C@H](Cc1c[nH]c2ccccc12)NC(=O)[C@@H]1C[C@H]2CCCC[C@@H]2N1C(=O)[C@@H]1Cc2c([nH]c3ccccc23)CN1C(=O)CCl [164A4]	Criterion met
Cc1cccc2c(C[C@H](NC(=O)CCl)C(=O)N3CCCC[C@H]3C(=O)N[C@@H](Cc3c[nH]c4ccccc34)C(N)=O)c[nH]c12 [158H7] (ClAc-[Trp(7-Me)]-[Pip]-Trp-NH2)	Criterion met
NC(=O)[C@H](Cc1c[nH]c2ccccc12)NC(=O)[C@@H]1CCCCN1C(=O)[C@H](Cc1c[nH]c2ccc(O)cc12)NC(=O)CCl [158H3] (ClAc-[Trp(5-OH)]-[Pip]-Trp-NH2)	Criterion not met

* * *

Catalogue of ΔTm (° C.) readings, one per entry.
- Target or system: UniProtKB Q13526
- Measurement notes: Denaturation thermal shift assay (SYPRO Orange)
- Format: binding
- Design: human Pin1 (residues 1-163); made in house; host or cells: E. coli BL21 (DE3) gold pLysS
- Condition description: Table 3; single transition; ± SE of four replicates
Where a SMILES comes first, the peptide text is derived from it. [ ]: non-standard residue; d: D form. The star is where a group is joined. Tyr(3-NO2) = N[C@@H](Cc1ccc(O)c([N+](=O)[O-])c1)C(=O)O; Trp(5-OMe) = COc1ccc2[nH]cc(C[C@H](N)C(=O)O)c2c1; pY = N[C@@H](Cc1ccc(OP(=O)(O)O)cc1)C(=O)O; Phe(3-CN) = N#Cc1cccc(C[C@H](N)C(=O)O)c1; Phe(4-F) = N[C@@H](Cc1ccc(F)cc1)C(=O)O; mTyr = N[C@@H](Cc1cccc(O)c1)C(=O)O; 4Pal = N[C@@H](Cc1ccncc1)C(=O)O; Pip = O=C(O)[C@@H]1CCCCN1; ClAc = O=C(CCl)*

Molecule	Unit name	ΔTm (° C.)
NC(=O)[C@H](Cc1c[nH]c2ccccc12)NC(=O)[C@@H]1CCCCN1C(=O)[C@H](Cc1ccc(F)cc1)NC(=O)CCl [158G11] (ClAc-[Phe(4-F)]-[Pip]-Trp-NH2)	°C	−10.57
NC(=O)[C@H](Cc1c[nH]c2ccccc12)NC(=O)[C@@H]1CCCCN1C(=O)[C@H](Cc1cccc(O)c1)NC(=O)CCl [158D9] (ClAc-[mTyr]-[Pip]-Trp-NH2)	°C	−8.28
NC(=O)[C@H](Cc1c[nH]c2ccccc12)NC(=O)[C@@H]1CCCCN1C(=O)[C@H](Cc1ccc(O)cc1)NC(=O)CCl [158G5] (HELM PEPTIDE1{[O=C(CCl)[*:2]].Y.[O=C([C@@H]1CCCCN1[*:1])[*:2]].W.[am]}$$$$V2.0)	°C	−9.29
COc1ccc(C[C@H](NC(=O)CCl)C(=O)N2CCCC[C@H]2C(=O)N[C@@H](Cc2c[nH]c3ccccc23)C(N)=O)cc1 [158H5] (ClAc-Tyr(Me)-[Pip]-Trp-NH2)	°C	−9.82
COc1ccc2[nH]cc(C[C@H](NC(=O)[C@@H]3CCCCN3C(=O)[C@H](Cc3ccccc3)NC(=O)CCl)C(N)=O)c2c1 [158F10] (ClAc-Phe-[Pip]-[Trp(5-OMe)]-NH2)	°C	−10.16
N#Cc1cccc(C[C@H](NC(=O)CCl)C(=O)N2CCCC[C@H]2C(=O)N[C@@H](Cc2c[nH]c3ccccc23)C(N)=O)c1 [158G3] (ClAc-[Phe(3-CN)]-[Pip]-Trp-NH2)	°C	−10.06
NC(=O)[C@H](Cc1c[nH]c2ccccc12)NC(=O)[C@@H]1CCCCN1C(=O)[C@H](Cc1c[nH]c2ccccc12)NC(=O)CCl [158G9] (HELM PEPTIDE1{[O=C(CCl)[*:2]].W.[O=C([C@@H]1CCCCN1[*:1])[*:2]].W.[am]}$$$$V2.0)	°C	−9.42
NC(=O)[C@H](Cc1c[nH]c2ccccc12)NC(=O)[C@@H]1CCCCN1C(=O)[C@H](Cc1ccncc1)NC(=O)CCl [158H1] (ClAc-[4Pal]-[Pip]-Trp-NH2)	°C	−9.18
NC(=O)[C@H](Cc1c[nH]c2ccccc12)NC(=O)[C@@H]1CCCCN1C(=O)[C@H](Cc1ccc(O)c([N+](=O)[O-])c1)NC(=O)CCl [158G10] (ClAc-[Tyr(3-NO2)]-[Pip]-Trp-NH2)	°C	−10.44
NC(=O)[C@H](Cc1c[nH]c2ccccc12)NC(=O)[C@@H]1CCCCN1C(=O)[C@H](Cc1ccc(OP(=O)(O)O)cc1)NC(=O)CCl [158E7] (ClAc-[pY]-[Pip]-Trp-NH2)	°C	−7.08

* * *

- Target or system: Pin1 (Homo sapiens)
- Measurement notes: DELFIA displacement assay (displacement of biotinylated D-peptide from 6His-Pin1)
- Format: binding
- Design: human Pin1 (residues 1-163); made in house; host or cells: E. coli BL21 (DE3) gold pLysS
- Condition description: Table 5
pIC50: −log10 of the molar value.
Readout: pIC50

In [3]: df
Out[3]:
                                   compound  readout  numeric_result
0  NC(=O)[C@H](Cc1c[nH]c2ccccc12)NC(=O)[C@@H]1C[C@H]2CCCC[C@@H]2N1C(=O)[C@H](Cc1c[nH]c2ccccc12)NC(=O)CCl [164A1]    pIC50            5.74
1  O=C(CCl)N[C@@H](Cc1c[nH]c2ccccc12)C(=O)N1CCCC[C@H]1C(=O)NCCc1c[nH]c2cc(Cl)cc(Cl)c12 [164A3]    pIC50            5.93

* * *

- Target or system: Pin1 (Homo sapiens, UniProt Q13526)
- Measurement notes: Denaturation thermal shift assay (SYPRO Orange)
- Type: binding
- Design: human Pin1 (residues 1-163); made in house; host or cells: E. coli BL21 (DE3) gold pLysS
- Condition description: running text and figure legends
*1 amine or outer side, *2 acyl side, *3 side chain or, on linkers, in order; H or OH if unused. Where a SMILES comes first, the peptide text is derived from it. [ ]: non-standard residue; d: D form. The star is where a group is joined. ξ: configuration not given here. Trp(6-Cl) = N[C@@H](Cc1c[nH]c2cc(Cl)ccc12)C(=O)O; X1 = CC(OP(=O)(O)O)[C@@H](N[*:1])C(=O)[*:2]; 2Nal = N[C@@H](Cc1ccc2ccccc2c1)C(=O)O; Pip = O=C(O)[C@@H]1CCCCN1; ξPip = O=C(O)C1CCCCN1; ClAc = O=C(CCl)*
Reported ΔTm values follow for various molecules

Molecule	Unit name	ΔTm
CC(=O)N[C@@H](Cc1ccccc1)C(=O)N[C@@H](C(=O)N1CCCCC1C(=O)N[C@@H](Cc1ccc2ccccc2c1)C(=O)N[C@@H](CCC(N)=O)C(N)=O)C(C)OP(=O)(O)O (some centres unmarked) [158A1, reference compound] (Ac-F[X1][ξPip][2Nal]Q-NH2)	°C	3.4
NC(=O)[C@H](Cc1c[nH]c2ccccc12)NC(=O)[C@@H]1CCCCN1C(=O)[C@H](Cc1c[nH]c2cc(Cl)ccc12)NC(=O)CCl [158H9] (ClAc-[Trp(6-Cl)]-[Pip]-Trp-NH2)	°C	−8.41
NC(=O)[C@H](Cc1c[nH]c2ccc(F)cc12)NC(=O)[C@@H]1CCCCN1C(=O)[C@@H]1Cc2c([nH]c3ccccc23)CN1C(=O)CCl	°C	−8.95
CN(C(=O)CCl)[C@@H](Cc1ccccc1)C(=O)N1CCCC[C@H]1C(=O)N[C@@H](CC1CNc2ccccc21)C(=O)N[C@@H](CCCNC(N)=O)C(N)=O (some centres unmarked) [158A12, reference compound]	°C	−6.4
